Cited source: patent US9878986B2

Study Target: UniProt:Q13547
Assay Overview: Test of HDAC activities, HDAC1 Fluorimetric Drug Discovery Assay Kit
Format: biochemical
Set-up: purchased Enzolifesciences BML-AK511
Condition Notes: samples at 100, 1000, 10000 nM; 37° C. 60 minutes; fluorescence Ex 390, Em 460; read-out: HDAC inhibitory activities, HDAC1
Readout Type: log10 of IC50 (log10 of the value in nM)
Scale: log10; quantity: IC50; unit before log: nM

Query: Can you share its log10 of IC50? I mean this compound: "Cc1ccc(N(Cc2ccc(C(=O)NO)cc2)C(=O)N2CCCCC2)c(F)c1"
Reply: 3.24

Query: Can you share its log10 of IC50? I mean this compound: "Cc1ccc(N(Cc2ccc(C(=O)NO)cc2)C(=O)N2CCN(c3ccc(F)cc3)CC2)c(F)c1"
Reply: 3.30

Query: Can you share its log10 of IC50? I mean this compound: "O=C(NO)c1ccc(CN(C(=O)N2CCOCC2)c2nc(-c3ccc(Cl)cc3)cs2)cc1"
Reply: 3.12

Query: Can you share its log10 of IC50? I mean this compound: "CN1CC=C(c2cccc(N(Cc3ccc(C(=O)NO)cc3)C(=O)N3CCOCC3)c2)CC1"
Reply: 3.54

Query: Can you share its log10 of IC50? I mean this compound: CC1CN(C(=O)N(Cc2ccc(C(=O)NO)cc2)c2ncccn2)CC(C)O1 (centres unmarked)
Reply: 4.56

Query: Can you share its log10 of IC50? I mean this compound: "CC(=O)N1CC=C(c2cccc(N(Cc3ccc(C(=O)NO)cc3)C(=O)N3CCOCC3)c2)CC1"
Reply: 2.66

Query: Can you share its log10 of IC50? I mean this compound: "CCN1CCN(C(=O)N(Cc2ccc(C(=O)NO)cc2)c2cccc(CF)c2)CC1"
Reply: 2.64

Query: Can you share its log10 of IC50? I mean this compound: "O=C(NO)c1ccc(CN(C(=O)N2CCN(Cc3ccccc3)CC2)c2cccc(C(F)(F)F)c2)cc1"
Reply: 2.74

Query: Can you share its log10 of IC50? I mean this compound: "O=C(NO)c1ccc(CN(C(=O)N2CCC(O)CC2)c2cccc(-c3ccc4c(c3)OCO4)c2)cc1"
Reply: 2.45

Query: Can you share its log10 of IC50? I mean this compound: "O=C(NO)c1ccc(CN(C(=O)N2CCOCC2)c2ccc(Br)cc2)cc1"
Reply: 2.33

Query: Can you share its log10 of IC50? I mean this compound: "Cc1ccc(N(Cc2ccc(C(=O)NO)cc2)C(=O)N2CCN(C)CC2)c(F)c1"
Reply: 2.65

Query: Can you share its log10 of IC50? I mean this compound: "O=C(NO)c1ccc(CN(C(=O)N2CCOCC2)c2cccc(-c3cc(F)cc(F)c3)c2)cc1"
Reply: 2.69

Query: Can you share its log10 of IC50? I mean this compound: "O=C(NO)c1ccc(CN(C(=O)N2CCN(c3ccc(F)cc3)CC2)c2ccc(F)c(Cl)c2)cc1"
Reply: 2.83

Query: Can you share its log10 of IC50? I mean this compound: "O=C(NO)c1ccc(CN(C(=O)N2CCN(CC3(F)CCOCC3)CC2)c2cccc(C(F)(F)F)c2)cc1"
Reply: 2.86

====

Study Target: HDAC 6 (Homo sapiens, UniProt Q9UBN7)
Sequence (Q9UBN7 1-1215): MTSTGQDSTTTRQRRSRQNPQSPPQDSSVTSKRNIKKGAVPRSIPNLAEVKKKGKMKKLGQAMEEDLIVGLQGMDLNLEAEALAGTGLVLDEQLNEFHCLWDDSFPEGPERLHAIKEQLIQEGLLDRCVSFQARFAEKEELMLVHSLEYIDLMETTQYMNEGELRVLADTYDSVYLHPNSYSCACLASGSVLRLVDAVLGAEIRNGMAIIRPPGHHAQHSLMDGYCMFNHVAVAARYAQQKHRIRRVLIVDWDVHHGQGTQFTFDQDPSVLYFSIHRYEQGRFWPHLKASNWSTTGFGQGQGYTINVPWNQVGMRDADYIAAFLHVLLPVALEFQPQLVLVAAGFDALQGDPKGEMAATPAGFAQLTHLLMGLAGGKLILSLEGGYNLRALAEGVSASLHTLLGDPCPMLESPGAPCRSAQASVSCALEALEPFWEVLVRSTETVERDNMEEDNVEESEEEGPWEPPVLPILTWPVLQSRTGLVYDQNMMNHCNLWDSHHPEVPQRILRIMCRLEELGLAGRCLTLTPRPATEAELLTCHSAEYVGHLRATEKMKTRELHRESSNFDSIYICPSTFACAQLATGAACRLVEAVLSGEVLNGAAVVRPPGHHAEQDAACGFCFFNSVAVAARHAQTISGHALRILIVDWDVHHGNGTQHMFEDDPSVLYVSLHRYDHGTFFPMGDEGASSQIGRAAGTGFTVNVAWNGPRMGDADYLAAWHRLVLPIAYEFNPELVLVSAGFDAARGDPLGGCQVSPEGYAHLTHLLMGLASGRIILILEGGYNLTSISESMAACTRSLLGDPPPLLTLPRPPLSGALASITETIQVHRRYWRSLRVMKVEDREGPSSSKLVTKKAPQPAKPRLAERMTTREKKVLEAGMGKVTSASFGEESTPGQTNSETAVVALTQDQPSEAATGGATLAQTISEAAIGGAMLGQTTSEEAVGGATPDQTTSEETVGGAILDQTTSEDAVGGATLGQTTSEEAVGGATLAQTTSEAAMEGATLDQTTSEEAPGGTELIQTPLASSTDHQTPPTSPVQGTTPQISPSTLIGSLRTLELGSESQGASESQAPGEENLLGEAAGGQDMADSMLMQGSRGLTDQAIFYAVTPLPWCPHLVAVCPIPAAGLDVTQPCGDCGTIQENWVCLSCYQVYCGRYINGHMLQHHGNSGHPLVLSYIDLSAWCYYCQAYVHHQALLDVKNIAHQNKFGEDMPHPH
Assay Overview: Test of HDAC activities, HDAC6 (fluorimetric)
Format: biochemical
Design: purchased Calbiochem 382180
Condition Notes: samples at 0.1, 1, 10, 100, 1000 nM; 37° C. 60 minutes; fluorescence Ex 390, Em 460; read-out: HDAC inhibitory activities, HDAC6
pIC50: −log10 of the molar value.
# label = Y if pIC50 >= 8 else N

Query: Check the entry "O=C(NO)c1ccc(CN(C(=O)N2CCOCC2)c2ccc(F)cc2F)cc1" : does pIC50 equal or exceed 8?
Reply: Y

Query: Check the entry "O=C(NO)c1ccc(CN(C(=O)N2CCOCC2)c2ccccc2OC(F)(F)F)cc1" : does pIC50 equal or exceed 8?
Reply: N

Query: Check the entry CC1CN(C(=O)N(Cc2ccc(C(=O)NO)cc2)c2ccc(F)cc2F)CC(C)O1 (centres unmarked) : does pIC50 equal or exceed 8?
Reply: Y

Query: Check the entry "O=C(NO)c1ccc(CN(C(=O)N2CCOCC2)c2cccc(CO)c2)cc1" : does pIC50 equal or exceed 8?
Reply: Y

Query: Check the entry "CC(C)(C)OC(=O)N1CCC(c2cccc(N(Cc3ccc(C(=O)NO)cc3)C(=O)N3CCOCC3)c2)CC1" : does pIC50 equal or exceed 8?
Reply: Y

Query: Check the entry "O=C(NO)c1ccc(CN(C(=O)N2CCN(Cc3ccccc3)CC2)c2cccc(C(F)(F)F)c2)cc1" : does pIC50 equal or exceed 8?
Reply: Y

====

Study Target: UniProtKB Q13547
Assay Overview: Test of HDAC activities, HDAC1 Fluorimetric Drug Discovery Assay Kit
Format: biochemical
Set-up: purchased Enzolifesciences BML-AK511
Condition Notes: samples at 100, 1000, 10000 nM; 37° C. 60 minutes; fluorescence Ex 390, Em 460; read-out: HDAC inhibitory activities, HDAC1
Readout Type: pIC50
// returns pIC50 (minus log10 of molar concentration), number only

Query: Can you share its pIC50? I mean this compound: CN1CCN(C(=O)N(Cc2ccc(C(=O)NO)cc2)c2ccc(Cl)c(C(F)(F)F)c2)CC1 [Compound 393]
Reply: 5.95

Query: Can you share its pIC50? I mean this compound: CS(=O)(=O)N1CCC(c2cccc(N(Cc3ccc(C(=O)NO)cc3)C(=O)N3CCOCC3)c2)CC1 [Compound 491]
Reply: 5.49

Query: Can you share its pIC50? I mean this compound: O=C(NO)c1ccc(CN(C(=O)N2CCOCC2)c2cccc(-c3cncnc3)c2)cc1 [Compound 397]
Reply: 6.00

Query: Can you share its pIC50? I mean this compound: O=C(NO)c1ccc(CN(C(=O)N2CCOCC2)c2ccc(Cl)cn2)cc1 [Compound 533]
Reply: 5.72

====

Study Target: HDAC1 (Homo sapiens, UniProt Q13547)
Sequence (Q13547 whole entry): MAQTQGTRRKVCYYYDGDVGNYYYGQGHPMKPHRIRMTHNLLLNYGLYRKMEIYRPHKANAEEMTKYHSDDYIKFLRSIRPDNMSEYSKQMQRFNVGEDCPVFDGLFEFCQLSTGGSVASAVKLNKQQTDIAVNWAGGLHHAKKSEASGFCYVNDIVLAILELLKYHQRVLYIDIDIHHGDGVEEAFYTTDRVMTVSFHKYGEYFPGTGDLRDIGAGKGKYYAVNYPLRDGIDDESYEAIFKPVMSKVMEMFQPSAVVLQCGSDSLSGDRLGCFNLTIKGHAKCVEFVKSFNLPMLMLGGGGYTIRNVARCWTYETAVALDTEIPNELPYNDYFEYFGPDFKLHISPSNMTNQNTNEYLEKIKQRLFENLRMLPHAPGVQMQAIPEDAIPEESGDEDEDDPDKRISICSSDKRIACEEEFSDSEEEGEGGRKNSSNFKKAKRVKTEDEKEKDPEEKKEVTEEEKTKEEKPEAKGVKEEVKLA
Assay Overview: Test of HDAC activities, HDAC1 Fluorimetric Drug Discovery Assay Kit
Assay type: biochemical
Parameters: purchased Enzolifesciences BML-AK511
Condition Notes: samples at 100, 1000, 10000 nM; 37° C. 60 minutes; fluorescence Ex 390, Em 460; read-out: HDAC inhibitory activities, HDAC1
Readout Type: pIC50
// returns pIC50 (minus log10 of molar concentration), number only

Query: So what pIC50 did CC1CN(C(=O)N(Cc2ccc(C(=O)NO)cc2)c2ccc(F)cc2F)CC(C)O1 (centres unmarked) get with HDAC1 (Homo sapiens, UniProt Q13547)?
Reply: 5.91

Query: So what pIC50 did "CCN1CCN(C(=O)N(Cc2ccc(C(=O)NO)cc2)c2ccc(C)cc2F)CC1" get with HDAC1 (Homo sapiens, UniProt Q13547)?
Reply: 6.22

Query: So what pIC50 did "O=C(NO)c1ccc(CN(C(=O)N2CCN(CC3(O)CCOCC3)CC2)c2cccc(C(F)(F)F)c2)cc1" get with HDAC1 (Homo sapiens, UniProt Q13547)?
Reply: 6.12

Query: So what pIC50 did "COc1cc(-c2cccc(N(Cc3ccc(C(=O)NO)cc3)C(=O)N3CCOCC3)c2)cc(OC)c1OC" get with HDAC1 (Homo sapiens, UniProt Q13547)?
Reply: 6.11

Query: So what pIC50 did "CN1CCN(C(=O)N(Cc2ccc(C(=O)NO)cc2)c2cccc(Br)c2)CC1" get with HDAC1 (Homo sapiens, UniProt Q13547)?
Reply: 6.83

Query: So what pIC50 did "O=C(NO)c1ccc(CN(C(=O)N2CCOCC2)c2ccccc2)cc1" get with HDAC1 (Homo sapiens, UniProt Q13547)?
Reply: 6.53

Query: So what pIC50 did "O=C(NO)c1ccc(CN(C(=O)N2CCCOCC2)c2ccc(C(F)(F)F)cc2)cc1" get with HDAC1 (Homo sapiens, UniProt Q13547)?
Reply: 6.18

Query: So what pIC50 did "O=C(NO)c1ccc(CN(C(=O)N2CCOCC2)c2cccc(C3=CCOCC3)c2)c(F)c1" get with HDAC1 (Homo sapiens, UniProt Q13547)?
Reply: 5.84
